- protocol text: S. cerevisiae growth inhibition in restrictive medium, OD615, pilot screen, restrictive growth control, yeast lifespan reduction project (AID 706);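 further: modified DeaD lifespan yeast strain shifted to restrictive glucose medium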
- stated conditions: OD615, 48 h, at 10 µM, hits give high values
metric name: growth inhibition (%)
Provide only the numeric value, understood in %.

Query string: What value of growth inhibition has been recorded for this entry: CCOC(=O)c1ccc(NC(=O)c2cc3ccccc3o2)cc1
Result string: -8.95

Query string: What value of growth inhibition has been recorded for this entry: O=C1c2ccccc2C(Nc2ccc(S(=O)(=O)N3CCOCC3)cc2)N1c1cccnc1 (configuration not stated)
Result string: -1.27

Query string: What value of growth inhibition has been recorded for this entry: N#CCSc1n[nH]c2nc3c(c(=O)n12)C1(CCCC1)Cc1ccccc1-3
Result string: 28

Query string: What value of growth inhibition has been recorded for this entry: Cc1c(C(=O)NCc2cccs2)oc2ccc(S(=O)(=O)N3CCOCC3)cc12
Result string: -4.37

Query string: What value of growth inhibition has been recorded for this entry: CCOc1ccccc1C(=O)Nc1ccc2nc(N3CCN(c4ncccn4)CC3)cc(C)c2c1
Result string: -4.81

Query string: What value of growth inhibition has been recorded for this entry: Cc1cc(C)n(-c2nc3ccccc3nc2Nc2ccc3c(c2)OCO3)n1
Result string: 1.25

Query string: What value of growth inhibition has been recorded for this entry: CCOc1ccc(-c2nc(CSCC(=O)N3CCN(c4cccc(OC)c4)CC3)c(C)o2)cc1
Result string: 19.7

Query string: What value of growth inhibition has been recorded for this entry: CCC1(C)Cc2ccccc2-c2nc3n(c(=O)c21)CCCCC3 (configuration not stated)
Result string: -14.2

Query string: What value of growth inhibition has been recorded for this entry: Brc1ccc(Oc2nnnn2-c2ccccc2)cc1
Result string: -3.68

Query string: What value of growth inhibition has been recorded for this entry: CC1CCN(c2nc3c(c(=O)[nH]c(=O)n3C)n2CCCc2ccccc2)CC1
Result string: -41.8

Query string: What value of growth inhibition has been recorded for this entry: CCCCn1c(Oc2ccc(C(=O)OC)cc2)nc2c1c(=O)n(C)c(=O)n2C
Result string: -3.88

Query string: What value of growth inhibition has been recorded for this entry: Cn1c(-n2c(CCCN3C(=O)c4ccccc4C3=O)nc3ccccc3c2=O)nc2ccccc21
Result string: 2.53

Query string: What value of growth inhibition has been recorded for this entry: O=C(CCS(=O)(=O)c1cccc2nonc12)N1CC(=O)N(CCc2ccccc2)C(=O)C1
Result string: -8.59

Query string: What value of growth inhibition has been recorded for this entry: COC(=O)c1ccc(CSc2ccc3nnc(-c4cccc(F)c4)n3n2)o1
Result string: 49

Query string: What value of growth inhibition has been recorded for this entry: C=C(C)Cn1c(SCC(=O)O)nnc1-c1ccc(C(C)(C)C)cc1
Result string: -4.97

Query string: What value of growth inhibition has been recorded for this entry: CCC(Sc1nc2c(cnn2-c2ccccc2)c(=O)[nH]1)C(=O)OC (configuration not stated)
Result string: -17.4

Query string: What value of growth inhibition has been recorded for this entry: CN(Cc1ccccc1)c1oc(COc2ccccc2F)nc1C#N
Result string: -8.97

Query string: What value of growth inhibition has been recorded for this entry: COC(=O)c1ccc2c(c1)N(Cc1ccccc1F)C(=O)c1ccccc1S2=O (configuration not stated)
Result string: -2.4

Query string: What value of growth inhibition has been recorded for this entry: Cc1cccc(N2CCN(C(=O)c3cc4c(=O)n(C)c5ccccc5c4n3C)CC2C)c1 (configuration not stated)
Result string: 3.15

Query string: What value of growth inhibition has been recorded for this entry: COc1ccccc1OCCSc1nnnn1-c1ccc(C)cc1
Result string: -6.1

Query string: What value of growth inhibition has been recorded for this entry: Cc1ccccc1S(=O)(=O)Cc1ccc(C(=O)N2CC(C)CC(C)C2)o1 (configuration not stated)
Result string: -32

Query string: What value of growth inhibition has been recorded for this entry: CCOc1ccccc1NC1c2ccccc2C(=O)N1c1ccc(C)cn1 (configuration not stated)
Result string: 3.06
